Can you tell me composite z-score for the items I'm about to list?
System: Sonic hedgehog protein (Shh)
PROTOCOL: small-molecule binders of Shh protein, primary screen, biochemical, small-molecule microarray, 635/667 nm fluorescence (AID 1151);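 also: Shh protein binding to compounds spotted on small-molecule microarray slides; score combines spot fluorescence intensity with signal-to-noise across triplicate slides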
PARTICULARS: small-molecule microarray binding, 635 nm fluorescence; higher = more signal
Give only the figure.

I am curious: what composite z-score value has been reported for COc1cccc([C@H]2Oc3ccc(OC)cc3C(=NOCC[C@@H]3C=C[C@H](OC(C)=O)[C@@H](COC(C)=O)O3)[C@@H]2O)c1 ?
0.509

I am curious: what composite z-score value has been reported for CCCNC(=O)OC[C@H]1O[C@H](CCON=C[C@@H](NS(=O)(=O)c2ccc(C)cc2)[C@H](C)C=CCC(=O)OC)C=C[C@@H]1Oc1ccc(OC)cc1 ?
-0.0635

I am curious: what composite z-score value has been reported for CC(C)=CCCC(C)=CCON=C1C[C@@H](O)[C@@H](O)[C@@H]2[C@@H]3C(=O)N(Cc4ccc5c(c4)OCO5)C(=O)[C@@H]3CC[C@@H]12 ?
0.816

I am curious: what composite z-score value has been reported for CO[C@H]1COC(=O)[C@H](C)COC(=O)[C@H](C)NC(=O)CC=C[C@H]1C ?
1.88

I am curious: what composite z-score value has been reported for Cc1cc(C)c(-c2cc([C@H](C)ON=C[C@@H](C)[C@H](OCc3ccccc3)C(C)C)on2)c(C)c1 ?
-0.16

I am curious: what composite z-score value has been reported for C#CCCCON=C1[C@H]2CCn3c(=O)n(Cc4cc5c(cc4Cl)OCO5)c(=O)n3[C@H]2[C@H](O)[C@@H]2O[C@H]12 ?
1.08

I am curious: what composite z-score value has been reported for CC(=O)OC[C@H]1O[C@H](CC=NOC[C@@H](O)COCc2ccco2)C=C[C@@H]1OC(C)=O ?
2.07

I am curious: what composite z-score value has been reported for CCc1cc2c(nc1CC)CCN(CCC(C)=NOC(C)CN1CCCCc3nc(C)c(C)cc31)C2 (centres undefined) ?
1.58

I am curious: what composite z-score value has been reported for CCN1C(=O)[C@H]2[C@H]3[C@H](O)[C@H](O)CC(=NO[C@H](C)c4cn([C@@H]5COC[C@H]5O)nn4)[C@@H]3CC[C@H]2C1=O ?
0.0707

I am curious: what composite z-score value has been reported for CCOC(=O)[C@H](Cc1ccccc1)NC(=O)CCC1CC(OC(=O)NCCc2ccc(F)cc2)CC2(CCCC(COC(=O)NCCC(C)C)O2)O1 (some centres undefined) ?
1.68

I am curious: what composite z-score value has been reported for O=C(NN=C1C[C@@H](O)[C@@H](O)[C@@H]2[C@@H]3C(=O)N(Cc4ccc5c(c4)OCO5)C(=O)[C@@H]3CC[C@@H]12)OCc1ccccc1 ?
-0.806

I am curious: what composite z-score value has been reported for COC(OC)[C@@H](C)[C@H](OC)[C@@H](C)[C@H](OC)c1ccccc1 ?
0.155

I am curious: what composite z-score value has been reported for O=C1[C@H]2[C@H]3[C@H](O)[C@H](O)CC(=NO[C@@H]4O[C@H](CO)[C@@H](O)[C@H](O)[C@H]4O)[C@H]3CC[C@H]2C(=O)N1c1ccc(F)cc1F ?
-0.704

I am curious: what composite z-score value has been reported for CCN1C(=O)[C@H]2[C@H]3[C@H](O)[C@H](O)CC(=NOCC[C@@H]4C=C[C@H](OC(C)=O)[C@@H](COC(C)=O)O4)[C@@H]3CC[C@H]2C1=O ?
0.55

Value source: PubChem BioAssay
